Catalogue of folding stability dG readings, one per entry.
B1: r16_88_TrROS_Hall (parent)
chain: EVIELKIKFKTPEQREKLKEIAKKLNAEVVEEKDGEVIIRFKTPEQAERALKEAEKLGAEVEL

Variants of: B1
Assay: folding stability dG (cDNA display proteolysis); higher = more stable
Conditions: PBS, room temperature
READOUT: folding stability dG (kJ/mol)

{"VARIANT_STRING": "V2L", "READOUT": "folding stability dG", "MEASURED_RESULT": 17.9}
{"VARIANT_STRING": "V2W", "READOUT": "folding stability dG", "MEASURED_RESULT": 19.1}
{"VARIANT_STRING": "K8Y", "READOUT": "folding stability dG", "MEASURED_RESULT": 19.3}
{"VARIANT_STRING": "T43M", "READOUT": "folding stability dG", "MEASURED_RESULT": 19.1}
{"VARIANT_STRING": "E53V", "READOUT": "folding stability dG", "MEASURED_RESULT": 18.2}
{"VARIANT_STRING": "R49K", "READOUT": "folding stability dG", "MEASURED_RESULT": 17.4}
{"VARIANT_STRING": "I39R", "READOUT": "folding stability dG", "MEASURED_RESULT": 4.02}
{"VARIANT_STRING": "D34I", "READOUT": "folding stability dG", "MEASURED_RESULT": 18.8}
{"VARIANT_STRING": "A22K", "READOUT": "folding stability dG", "MEASURED_RESULT": 15.8}
{"VARIANT_STRING": "V2N", "READOUT": "folding stability dG", "MEASURED_RESULT": 17.7}
{"VARIANT_STRING": "P44Q", "READOUT": "folding stability dG", "MEASURED_RESULT": 19.1}
{"VARIANT_STRING": "E31K", "READOUT": "folding stability dG", "MEASURED_RESULT": 18.2}
{"VARIANT_STRING": "V29M", "READOUT": "folding stability dG", "MEASURED_RESULT": 18.4}
{"VARIANT_STRING": "R49I", "READOUT": "folding stability dG", "MEASURED_RESULT": 18.8}
{"VARIANT_STRING": "R15G", "READOUT": "folding stability dG", "MEASURED_RESULT": 16.5}
{"VARIANT_STRING": "A27I", "READOUT": "folding stability dG", "MEASURED_RESULT": 18.2}
{"VARIANT_STRING": "A54M", "READOUT": "folding stability dG", "MEASURED_RESULT": 18.6}
{"VARIANT_STRING": "V61G", "READOUT": "folding stability dG", "MEASURED_RESULT": 18.4}
{"VARIANT_STRING": "L51F", "READOUT": "folding stability dG", "MEASURED_RESULT": 18.4}
{"VARIANT_STRING": "K24Q", "READOUT": "folding stability dG", "MEASURED_RESULT": 19.1}
{"VARIANT_STRING": "V2P", "READOUT": "folding stability dG", "MEASURED_RESULT": 17.4}
{"VARIANT_STRING": "E4K", "READOUT": "folding stability dG", "MEASURED_RESULT": 18.9}
{"VARIANT_STRING": "Q14G", "READOUT": "folding stability dG", "MEASURED_RESULT": 18.1}
{"VARIANT_STRING": "P44C", "READOUT": "folding stability dG", "MEASURED_RESULT": 19.5}
{"VARIANT_STRING": "V30I", "READOUT": "folding stability dG", "MEASURED_RESULT": 18.7}
{"VARIANT_STRING": "A22V", "READOUT": "folding stability dG", "MEASURED_RESULT": 18.3}
{"VARIANT_STRING": "R40K", "READOUT": "folding stability dG", "MEASURED_RESULT": 17.9}
{"VARIANT_STRING": "A50W", "READOUT": "folding stability dG", "MEASURED_RESULT": 19.6}
{"VARIANT_STRING": "L51T", "READOUT": "folding stability dG", "MEASURED_RESULT": 19.9}
{"VARIANT_STRING": "K56F", "READOUT": "folding stability dG", "MEASURED_RESULT": 17.7}
{"VARIANT_STRING": "E60G", "READOUT": "folding stability dG", "MEASURED_RESULT": 15.9}
{"VARIANT_STRING": "K17Y", "READOUT": "folding stability dG", "MEASURED_RESULT": 19.1}
{"VARIANT_STRING": "F41K", "READOUT": "folding stability dG", "MEASURED_RESULT": 2.8}
{"VARIANT_STRING": "N26Y", "READOUT": "folding stability dG", "MEASURED_RESULT": 18}
{"VARIANT_STRING": "Q46W", "READOUT": "folding stability dG", "MEASURED_RESULT": 17.6}
{"VARIANT_STRING": "E62G", "READOUT": "folding stability dG", "MEASURED_RESULT": 18.7}
{"VARIANT_STRING": "E4R", "READOUT": "folding stability dG", "MEASURED_RESULT": 19.2}
{"VARIANT_STRING": "G35T", "READOUT": "folding stability dG", "MEASURED_RESULT": 18.2}
{"VARIANT_STRING": "L25K", "READOUT": "folding stability dG", "MEASURED_RESULT": 16}
{"VARIANT_STRING": "A22R", "READOUT": "folding stability dG", "MEASURED_RESULT": 17.5}
{"VARIANT_STRING": "V2R", "READOUT": "folding stability dG", "MEASURED_RESULT": 17.6}
{"VARIANT_STRING": "L18D", "READOUT": "folding stability dG", "MEASURED_RESULT": 5.19}
{"VARIANT_STRING": "N26L", "READOUT": "folding stability dG", "MEASURED_RESULT": 17.4}
{"VARIANT_STRING": "V37I", "READOUT": "folding stability dG", "MEASURED_RESULT": 18.4}
{"VARIANT_STRING": "E1T", "READOUT": "folding stability dG", "MEASURED_RESULT": 17.8}
{"VARIANT_STRING": "E36R", "READOUT": "folding stability dG", "MEASURED_RESULT": 19.3}

Source listed as the MegaScale stability set (Tsuboyama et al. 2023).
